B1: POU domain, class 6, transcription factor 2, residues 609 to 663; numbered along this chain, P78424 (parent)
chain: KRRTSFTPQALEILNAHFEKNTHPSGQEMTEIAEKLNYDREVVRVWFCNKRQALK

Variants of: B1
Experiment: abundance fitness (aPCA) (normalised: wild type 0, dead -1); higher = more abundant; growth selection in yeast, the domain comes from the species named
Details: Homo sapiens
The label depends only on abundance fitness: 1 (yes) if it is at least -0.2, 0 (no) if it is smaller.

Look over these answered cases.
Ask: Determine whether this variant has abundance fitness no lower than -0.2: KRRTSFTPQACEILNAHFEKNTHPSGQEMTEIAEKLNYDREVVRVWFCNKRQALK
Reply: 0 (no)

Ask: Determine whether this variant has abundance fitness no lower than -0.2: KRRTSFTPQALEILNAHFEKNTHPSGQEMTEIAEKVNYDREVVRVWFCNKRQALK
Reply: 1 (yes)

Ask: Determine whether this variant has abundance fitness no lower than -0.2: KRRTSFTPQALEILNAHFEKNTHPSGQEMTEIAEKLNYDREVVRVHFCNKRQALK
Reply: 0 (no)

Ask: Determine whether this variant has abundance fitness no lower than -0.2: KRRTSFTPQALEILNAHFEKNTHPSGQEMTEIAEKLNYDREVVRVWFCNKRQARK
Reply: 1 (yes)

Ask: Determine whether this variant has abundance fitness no lower than -0.2: KRRTSFTPQALEILNAHFEKNTHPSGQEMTEIAEKLNYDREVIRVWFCNKRQALK
Reply: 0 (no)

Ask: Determine whether this variant has abundance fitness no lower than -0.2: KRRTSFTPQALEILNAHFEKNTHPSGQEMTEIAQKLNYDREVVRVWFCNKRQALK
Reply: 1 (yes)

Ask: Determine whether this variant has abundance fitness no lower than -0.2: KRRTSFTPQALEILNAHFEKNTHPHGQEMTEIAEKLNYDREVVRVWFCNKRQALK
Reply: 1 (yes)

Ask: Determine whether this variant has abundance fitness no lower than -0.2: KRRTSFTPQALEILNAHFEKNTHPSGQEMTEIAEKLNRDREVVRVWFCNKRQALK
Reply: 1 (yes)

Ask: Determine whether this variant has abundance fitness no lower than -0.2: KRRTSFTPQALCILNAHFEKNTHPSGQEMTEIAEKLNYDREVVRVWFCNKRQALK
Reply: 0 (no)

Ask: Determine whether this variant has abundance fitness no lower than -0.2: KRRTSFTPQALEILNAHFEKHTHPSGQEMTEIAEKLNYDREVVRVWFCNKRQALK
Reply: 1 (yes)

Further cases:
Ask: Determine whether this variant has abundance fitness no lower than -0.2: KRRTSFRPQALEILNAHFEKNTHPSGQEMTEIAEKLNYDREVVRVWFCNKRQALK
Reply: 0 (no)

Ask: Determine whether this variant has abundance fitness no lower than -0.2: KRRTSFTPQALEILNAHFEKNTHPSGQEMTEIAEKLCYDREVVRVWFCNKRQALK
Reply: 0 (no)
